Experiment: Pharmacokinetic studies in male CD-1 mice (plasma, IV and PO)
Format: in vivo, mouse
Conditions: male, CD-1; mouse plasma, PO 10 mg/kg; read-out: Compound concentration at 24-hour, PO administration
We begin with a simple list: items and their reported concentration at 24 h.
measurement_label: concentration at 24 h (ng/mL)

compound="COCCN(c1ccccc1)C1C[C@@H]2CC[C@@H](C)[C@@](O)(O2)C(=O)C(=O)N2CCCC[C@H]2C(=O)OC([C@H](C)CC2CC[C@@H](O)C(OC)C2)CC[C@H](C)/C=C(\\C)C(O)C(OC)C(=O)[C@H](C)C[C@H](C)/C=C/C=C/C=C/1C (some centres unmarked) [Compound 69]" unit_abbrev=ng/mL recorded_measurement=4670
compound="CO[C@H]1C[C@@H]2CC[C@@H](C)[C@@](O)(O2)C(=O)C(=O)N2CCCC[C@H]2C(=O)O[C@H]([C@H](C)C[C@@H]2CC[C@@H](OCCO)[C@H](OC)C2)CC(=O)[C@H](C)/C=C(\\C)[C@@H](O)[C@@H](OC)C(=O)[C@H](C)C[C@H](C)/C=C/C=C/C=C/1C [RAD001, everolimus, reference compound]" unit_abbrev=ng/mL recorded_measurement=273
